Overview of reported EC50 across a group of binders:
# Tested target: T1, Human IL-11 (human, UniProt P20809 22-199)
# T1 construct: Recombinant human IL-11 (GenScript Cat. No. Z03108-1) or IL-11 secreted by human cells; the mature form is said to have 178 residues; also called recombinant human IL-11; endogenously produced IL-11
# T1 sequence: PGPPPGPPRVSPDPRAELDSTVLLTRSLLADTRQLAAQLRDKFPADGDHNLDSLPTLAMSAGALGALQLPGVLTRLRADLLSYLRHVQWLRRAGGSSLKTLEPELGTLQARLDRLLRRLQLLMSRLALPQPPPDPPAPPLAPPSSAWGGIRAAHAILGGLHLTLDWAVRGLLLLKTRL
# Protocol: ELISA on coated recombinant human IL-11 (100 ng/well), scFv-Fc
Answer in µg/mL, number only, no unit symbol.

YU112-G06 (antibody) QVQLQESGGGVVQPGRSLRLSCAASGFTFSSYGMHWVRQAPGKGLEWVAVISYDGSNKYYADSVKGRFTISRDNSKNTLYLQMNSLRAEDTAVYYCAKIGATDPLDYWGQGTLVTVSSGSASAPKLEEGEFSEARVQSALTQPRSVSGSPGQSVTISCTGTISDVGGYNYVSWYQQHPGKAPKLMIYDVTKRRSGVPDRFSGSKSGNTASLTISGLQAEDEAGYYCSSYAGGYTWVFGGGTELTVL; 0.017

Turning to the following binder.
Recorded EC50 for YU100-F07 (antibody) QVQLVESGGGVVQPGRSLRLSCAASGFTFSSYAMHWVRQAPGKGLEWVAVISYDGSNKYYADSVKGRFTISRDNSKNTLYLQMNSLRAEDTAVYYCARIMGYDYGDYDVVDYWGQGTLVTVSSGSASAPKLEEGEFSEARVQSALTQPRSVSVSPGQSVTISCTGTSSDVGGYEYVSWYQQHPGKAPKLMIYDVTKRPSGVPDRFSGSKSGNTASLTISGLQGEDAADYYCCSYAGSYTWVFGGGTTVTVL , please? 0.041
